# System: CAF#5 (primary prostate cancer-associated fibroblasts of myCAF-like type)
# EXPERIMENT_SUMMARY: drug sensitivity score (DSS2, normalised partial AUC of dose-response, 72 h CellTiter-Glo viability) (DSS (dimensionless)); higher = more sensitive (stronger growth inhibition / cytotoxicity); extreme values may be limits of the assay
READOUT_NAME: drug sensitivity score
One number for each entry.

Consider the following illustrative entries.
>>> endpoint_value("COC[C@H](NC(=O)c1cnc(C)s1)C(=O)N[C@@H](COC)C(=O)N[C@@H](Cc1ccccc1)C(=O)[C@@]1(C)CO1 [Oprozomib] (tested concentration range 0.2-2500 nM)")
13.1
>>> endpoint_value("C=CC(=O)N1CC/C(=C\\c2ccc(F)c([N+](=O)[O-])c2)C(=O)/C(=C/c2ccc(F)c([N+](=O)[O-])c2)C1 [VLX1570] (tested concentration range 1-10000 nM)")
25.1

Give drug sensitivity score for each of the items listed below.
1. CC(C)c1c(C(=O)Nc2ccccc2)c(-c2ccccc2)c(-c2ccc(F)cc2)n1CC[C@@H](O)C[C@@H](O)CC(=O)O [Atorvastatin] (tested concentration range 1-10000 nM)
2. CCNC(=O)C[C@@H]1N=C(c2ccc(Cl)cc2)c2cc(OC)ccc2-n2c(C)nnc21 [Molibresib] (tested concentration range 1-10000 nM)
3. CC(=O)OC[C@H]1O[C@@H]([S-])[C@H](OC(C)=O)[C@@H](OC(C)=O)[C@@H]1OC(C)=O.CCP(CC)CC.[Au+] [Auranofin] (tested concentration range 0.2-2500 nM)

Output:
[5.4, 2.9, 3.5]

====

# System: CAF#2 (primary prostate cancer-associated fibroblasts of iCAF-like type)
# EXPERIMENT_SUMMARY: drug sensitivity score (DSS2, normalised partial AUC of dose-response, 72 h CellTiter-Glo viability) (DSS (dimensionless)); higher = more sensitive (stronger growth inhibition / cytotoxicity); extreme values may be limits of the assay
READOUT_NAME: drug sensitivity score
One number for each entry.

Consider the following illustrative entries.
>>> endpoint_value("CC1(C)NC(=O)N(c2ccc([N+](=O)[O-])c(C(F)(F)F)c2)C1=O [Nilutamide] (tested concentration range 1-10000 nM)")
0.1
>>> endpoint_value("Cc1cccc(CC(=O)N2CCc3c2ccc(-c2cn(C)c4ncnc(N)c24)c3F)n1 (tested concentration range 0.2-2500 nM)")
0

With those in mind, consider the next compound.
Input: Value wanted: drug sensitivity score (CAF#2) of entry N#Cc1ccc(C(c2ccc(C#N)cc2)n2cncn2)cc1 [Letrozole] (tested concentration range 1-10000 nM)
Output: 0

====

# System: CAF#2
# EXPERIMENT_SUMMARY: drug sensitivity score (DSS2, normalised partial AUC of dose-response, 72 h CellTiter-Glo viability) (DSS (dimensionless)); higher = more sensitive (stronger growth inhibition / cytotoxicity); extreme values may be limits of the assay
For each of the compounds below, state its drug sensitivity score.
Give bare numbers.

>>> endpoint_value("C=CC(=O)N1CCC(Oc2cc3c(Nc4ccc(Cl)c(Cl)c4F)ncnc3cc2OC)CC1 [Poziotinib] (tested concentration range 0.1-1000 nM)")
0
>>> endpoint_value("CC(=O)OC[C@H]1O[C@@H]([S-])[C@H](OC(C)=O)[C@@H](OC(C)=O)[C@@H]1OC(C)=O.CCP(CC)CC.[Au+] [Auranofin] (tested concentration range 0.2-2500 nM)")
5
>>> endpoint_value("CC(=O)Nc1ccc(C(=O)Nc2ccccc2N)cc1 [Tacedinaline] (tested concentration range 0.1-1000 nM)")
2.3
>>> endpoint_value("COc1cccc2c1C(=O)c1c(O)c3c(c(O)c1C2=O)C[C@@](O)(C(C)=O)C[C@@H]3O[C@H]1C[C@H](N)[C@H](O)[C@H](C)O1 [Daunorubicin] (tested concentration range 0.1-1000 nM)")
9.4

Input: Name the recorded drug sensitivity score for CCN1CCN(Cc2ccc(Nc3ncc(F)c(-c4cc(F)c5nc(C)n(C(C)C)c5c4)n3)nc2)CC1 [Abemaciclib] (tested concentration range 0.2-2500 nM) .
Output: 5.6

====

# Test system: CAF#3 (primary prostate cancer-associated fibroblasts of myCAF-like type)
# EXPERIMENT_SUMMARY: drug sensitivity score (DSS2, normalised partial AUC of dose-response, 72 h CellTiter-Glo viability) (DSS (dimensionless)); higher = more sensitive (stronger growth inhibition / cytotoxicity); extreme values may be limits of the assay
Returns satisfied if the recorded drug sensitivity score is greater than or equal to 7, and not satisfied otherwise.

>>> class("CC[C@H](CC#N)OC(=O)N[C@@H](C)c1cccc(NC(=O)Nc2ccc(-c3cnco3)c(OC)c2)c1 [AVN944] (tested concentration range 1-10000 nM)")
"satisfied"

Input: Is drug sensitivity score at least 7? Consider Cc1sc2c(c1C)C(c1ccc(Cl)cc1)=N[C@@H](CC(=O)NCCCCNC(=O)COc1cccc3c1C(=O)N(C1CCC(=O)NC1=O)C3=O)c1nnc(C)n1-2 (stereo partly specified) [dBET1] (tested concentration range 1-10000 nM)
Output: satisfied

Input: // query: Cc1cccc(-c2[nH]c(CNc3ccccc3F)nc2-c2ccc3ncnn3c2)n1 [TEW-7197] (tested concentration range 0.2-2500 nM)
Output: not satisfied

Input: // query: COc1cc(C(=O)O)ccc1NC(=O)[C@@H]1N[C@@H](CC(C)(C)C)[C@](C#N)(c2ccc(Cl)cc2F)[C@H]1c1cccc(Cl)c1F [Idasanutlin] (tested concentration range 1-10000 nM)
Output: not satisfied

Input: // query: CC(C)(C)Cn1c(N)nc2ccc(-c3[nH]c(C(C)(C)C)nc3-c3ccc(F)cc3)nc21 [Ralimetinib] (tested concentration range 1-10000 nM)
Output: not satisfied

Input: // query: C=CCn1c(=O)c2cnc(Nc3ccc(N4CCN(C)CC4)cc3)nc2n1-c1cccc(C(C)(C)O)n1 [Adavosertib] (tested concentration range 1-10000 nM)
Output: not satisfied

Input: // query: Cn1ncc(Cl)c1-c1cc(C(=O)N[C@H](CN)Cc2cccc(F)c2)sc1Cl [Afuresertib] (tested concentration range 0.1-1000 nM)
Output: not satisfied

Input: // query: C[C@]1(O)C[C@@H](c2nc(-c3ccc4ccc(-c5ccccc5)nc4c3)c3c(N)nccn32)C1 [Linsitinib] (tested concentration range 1-10000 nM)
Output: not satisfied

Input: // query: C=C1C[C@@H]2[C@H](CC[C@]3(C)C(=O)CC[C@@H]23)[C@@]2(C)C=CC(=O)C=C12 [Exemestane] (tested concentration range 1-10000 nM)
Output: not satisfied

====

# Test system: CAF#4 (primary prostate cancer-associated fibroblasts of iCAF-like type)
# EXPERIMENT_SUMMARY: drug sensitivity score (DSS2, normalised partial AUC of dose-response, 72 h CellTiter-Glo viability) (DSS (dimensionless)); higher = more sensitive (stronger growth inhibition / cytotoxicity); extreme values may be limits of the assay
READOUT_NAME: drug sensitivity score

>>> endpoint_value("CO[C@H]1C[C@@H]2CC[C@@H](C)[C@@](O)(O2)C(=O)C(=O)N2CCCC[C@H]2C(=O)O[C@H]([C@H](C)C[C@@H]2CC[C@@H](OC(=O)C(C)(CO)CO)[C@H](OC)C2)CC(=O)[C@H](C)/C=C(\\C)[C@@H](O)[C@@H](OC)C(=O)[C@H](C)C[C@H](C)/C=C/C=C/C=C/1C [Temsirolimus] (tested concentration range 0-100 nM)")
9.9

Input: Name the recorded drug sensitivity score for C=CC(=O)Nc1cccc(Nc2nc(Nc3ccc(N4CCN(C(C)=O)CC4)cc3OC)ncc2C(F)(F)F)c1 [Rociletinib] (tested concentration range 0.5-5000 nM) .
Output: 6.8

====

# Test system: CAF#7 (primary prostate cancer-associated fibroblasts of myCAF-like type)
# EXPERIMENT_SUMMARY: drug sensitivity score (DSS2, normalised partial AUC of dose-response, 72 h CellTiter-Glo viability) (DSS (dimensionless)); higher = more sensitive (stronger growth inhibition / cytotoxicity); extreme values may be limits of the assay
READOUT_NAME: drug sensitivity score
Answers are plain numbers.

Consider the following illustrative entries.
>>> endpoint_value("COc1cc(C(=O)O)ccc1NC(=O)[C@@H]1N[C@@H](CC(C)(C)C)[C@](C#N)(c2ccc(Cl)cc2F)[C@H]1c1cccc(Cl)c1F [Idasanutlin] (tested concentration range 1-10000 nM)")
10.2
>>> endpoint_value("CCc1cnn2c(NCc3ccc[n+]([O-])c3)cc(N3CCCC[C@H]3CCO)nc12 [Dinaciclib] (tested concentration range 0.1-1000 nM)")
15.9
>>> endpoint_value("CC(C)C(=O)Nc1ccc([N+](=O)[O-])c(C(F)(F)F)c1 [Flutamide] (tested concentration range 1-10000 nM)")
0

Give drug sensitivity score for each of the items listed below.
1. COc1ccccc1S(=O)(=O)Nc1ccc2c(c1)CN(C)C(=O)N2 [PFI-1] (tested concentration range 3-30000 nM)
2. CC(C)Cn1cnc2c(N)nc3ccccc3c21 [Imiquimod] (tested concentration range 0.2-2500 nM)
3. CNC(=O)c1cc(Oc2ccc(NC(=O)Nc3ccc(Cl)c(C(F)(F)F)c3)c(F)c2)ccn1 [Regorafenib] (tested concentration range 1-10000 nM)
4. CC(C)(C)NC(=O)[C@H]1CC[C@H]2[C@@H]3CC[C@H]4NC(=O)C=C[C@]4(C)[C@H]3CC[C@]12C [Finasteride] (tested concentration range 1-10000 nM)
5. C=CC(=O)N1CC/C(=C\c2ccc(F)c([N+](=O)[O-])c2)C(=O)/C(=C/c2ccc(F)c([N+](=O)[O-])c2)C1 [VLX1570] (tested concentration range 1-10000 nM)

Output:
1: 3.4; 2: 0; 3: 2.7; 4: 0; 5: 19.5

Give drug sensitivity score for each of the items listed below.
1. COc1c(OCCCN2CCOCC2)ccc2c1N=C(NC(=O)c1cnc(N)nc1)N1CCN=C21 [Copanlisib] (tested concentration range 0.1-1000 nM)
2. O=C(CCCCCCC(=O)Nc1ccccc1)NO [Vorinostat] (tested concentration range 1-10000 nM)
3. O=c1[nH]c(C2CCCN2)nc2c1oc1ccc(Cl)cc12 (configuration not stated) (tested concentration range 1-10000 nM)
4. N#CC1(c2ccc(NC(=O)c3cccnc3NCc3ccncc3)cc2)CCCC1 [Apatinib] (tested concentration range 1-10000 nM)

Output:
1. 7.5
2. 3.1
3. 0
4. 2.2
